Entry source: the supplement of paper PMC11417369

# Tested on: PfAP2-I AP2 domain 3 (GST-tagged)
# TEST_PROTOCOL: gcPBM binding intensity (ln(normalized median fluorescence intensity)); higher = stronger DNA binding
Whole data set: some 25,000 sequences, median “ln(normalized median fluorescence intensity)” near 7.9, cut for the highest 2% near 11. The sample as a whole holds a higher share of the highest values than the screen did.
Think of 8 as a floor: if gcPBM binding intensity (ln) stands on it or above, it is fulfilled; beneath it, not fulfilled.

[
  {
    "POLYMER_SEQUENCE": "ACATATTATTCAAGTGCACACTTTATATTTATGATT [CACACA_site3295]",
    "CAT": "fulfilled"
  },
  {
    "POLYMER_SEQUENCE": "GAAAAGCAGATAAATGTGCACATATATGTTTGTATA",
    "CAT": "fulfilled"
  },
  {
    "POLYMER_SEQUENCE": "AAAGAAAACGGACTTTGTACTTAAATATAATATAAA [XGTACX_site8585]",
    "CAT": "not fulfilled"
  },
  {
    "POLYMER_SEQUENCE": "TATACGGACTCTAAGTGTACTTAAAATAATTCAAAC [XGTACX_site3606]",
    "CAT": "not fulfilled"
  },
  {
    "POLYMER_SEQUENCE": "TTGTTGTGTATTATCGTGCACATAATATAAAAGATT",
    "CAT": "fulfilled"
  },
  {
    "POLYMER_SEQUENCE": "TTATTTTATTTTTGTGCACACTGATAAATTGAAAAG [CACACA_site2949]",
    "CAT": "fulfilled"
  },
  {
    "POLYMER_SEQUENCE": "TCTATGAATTAATATGCATGTAACGTATTTATACTT [TGCATGCA_site669]",
    "CAT": "not fulfilled"
  },
  {
    "POLYMER_SEQUENCE": "GTAATTAAAATATATACACACAAAGGCTATTAAATA [CACACA_site1011]",
    "CAT": "not fulfilled"
  },
  {
    "POLYMER_SEQUENCE": "AACGGGTAATGCACAAAAAAAAAAAAATAAAATAAA [TGCATGCA_negctrl_site474]",
    "CAT": "fulfilled"
  },
  {
    "POLYMER_SEQUENCE": "CACAAAAATAAACACACACACATATATATATATATA [CACACA_site4704]",
    "CAT": "fulfilled"
  },
  {
    "POLYMER_SEQUENCE": "AATATAATATAATGCACACATAAAAAAAAAATCAAA [CACACA_site122]",
    "CAT": "fulfilled"
  },
  {
    "POLYMER_SEQUENCE": "AAAACAAACAAAAAAAAAAAAAAAAATATCAATCTA [TGCATGCA_negctrl_site203]",
    "CAT": "not fulfilled"
  },
  {
    "POLYMER_SEQUENCE": "AGTGCATACATGAATTGTACTTTAAAATAAATTCTA [XGTACX_site8156]",
    "CAT": "fulfilled"
  },
  {
    "POLYMER_SEQUENCE": "CATTAACAAATAAATGCACACATATATATAAATAAT [CACACA_site7892]",
    "CAT": "fulfilled"
  },
  {
    "POLYMER_SEQUENCE": "GGAAATTTCAATATTTGTACATATATATATATATAT [XGTACX_site3222]",
    "CAT": "fulfilled"
  },
  {
    "POLYMER_SEQUENCE": "TATATGTATGTTTGTGTGCACACATAAATATTATAT",
    "CAT": "fulfilled"
  },
  {
    "POLYMER_SEQUENCE": "AATATAAAAATGCACACACACAAAAAAAAAAAAAAA [CACACA_site6546]",
    "CAT": "fulfilled"
  },
  {
    "POLYMER_SEQUENCE": "ATCGTGTTAAATGTTGTGCACATATAAATTACAAAA [GTGCAC_site9822]",
    "CAT": "fulfilled"
  },
  {
    "POLYMER_SEQUENCE": "AAAATTTAATATAATGCACACATAAAACAAAAACAA [CACACA_site8071]",
    "CAT": "fulfilled"
  },
  {
    "POLYMER_SEQUENCE": "AAAATATAATATAATGCACACATAAACAAAAAAAAA [CACACA_site8161]",
    "CAT": "fulfilled"
  },
  {
    "POLYMER_SEQUENCE": "TATATATGTATAAGAGTGCATATGCATATATGTATA [GTGCAC_site9692]",
    "CAT": "fulfilled"
  },
  {
    "POLYMER_SEQUENCE": "CTGTACACTTAAACGGTGCAAAAAGAAAAAAAAGAA",
    "CAT": "fulfilled"
  },
  {
    "POLYMER_SEQUENCE": "CACTTTAATTTATGCACACATATGGAACAACAGCCA [CACACA_site994]",
    "CAT": "fulfilled"
  },
  {
    "POLYMER_SEQUENCE": "TTAATTAAATATAGGGGTACATATTATATATGTTTT [XGTACX_site3677]",
    "CAT": "not fulfilled"
  },
  {
    "POLYMER_SEQUENCE": "TATATATAAATATATACACACATGAAAATAAATAAA [CACACA_site2514]",
    "CAT": "not fulfilled"
  },
  {
    "POLYMER_SEQUENCE": "TTTTGTTTTTGTAGAGTGCATAAAGAAGATATGTAT",
    "CAT": "fulfilled"
  },
  {
    "POLYMER_SEQUENCE": "TATATACTCATGCGCACACACAAGTGGGAAATTTGG [CACACA_site5056]",
    "CAT": "fulfilled"
  }
]
